src = patent US20260193326A1

Quick reference: Kd of the listed items.
# Target Desc: Adeno-associated virus serotype 5 (AAV5) (AAV5)
# Assay Explanation: SPR, AAV amine-coupled to CM5 chip, nanobody 1-50 nM as analyte
Reply numerically in nM, unit not repeated.

Binder: A4-T2 (A4-017 with a C-terminal GGGGS linker followed by a 6xHis tag) (VHH) VHH: VQLQESGGGLVQPGGSLRLSCAASGSIFSINLMGWYRQAPGKQRELVATITRGGNTNYAGSVKGRFTISRDNAKNTVYLQMNSLRPEDTAVYYCHVDEVRQSSWTTSNLWGQGTQVTVSS
Kd (nM): 234
--
Binder: A4-T1 (A4-017 with a C-terminal 6xHis tag) (VHH) VHH: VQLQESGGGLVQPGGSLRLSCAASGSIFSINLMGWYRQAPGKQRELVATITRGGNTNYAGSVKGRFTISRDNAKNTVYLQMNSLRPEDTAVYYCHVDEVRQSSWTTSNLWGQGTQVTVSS
Kd (nM): 268
--
Binder: A4-M1 (A4-017 with an N-terminal amino acid sequence MetAlaGln) (VHH) VHH: QVQLQESGGGLVQPGGSLRLSCAASGSIFSINLMGWYRQAPGKQRELVATITRGGNTNYAGSVKGRFTISRDNAKNTVYLQMNSLRPEDTAVYYCHVDEVRQSSWTTSNLWGQGTQVTVSS
Kd (nM): 324
--
Binder: A4-M2 (A4-017 with an N-terminal methionine) (VHH) VHH: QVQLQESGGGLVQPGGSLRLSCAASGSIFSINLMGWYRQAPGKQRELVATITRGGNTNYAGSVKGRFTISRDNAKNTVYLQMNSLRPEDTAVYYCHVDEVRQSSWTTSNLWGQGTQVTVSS
Kd (nM): 415

# next binder below
Could you tell me which Kd is on file for A4-L1 (A4-017 with a C-terminal IgA hinge followed by a 6xHis tag) (VHH) VHH: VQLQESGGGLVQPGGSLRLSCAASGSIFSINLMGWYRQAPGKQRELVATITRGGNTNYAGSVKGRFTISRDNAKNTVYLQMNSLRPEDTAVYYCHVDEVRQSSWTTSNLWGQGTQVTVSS ?
569
